System: HCT116 p53–/–
Assay: MTS cytotoxicity assay, 72 h, HCT116 p53–/–
Assay type: cell-based
Settings: Homo sapiens, HCT-116, 72 h, full Table S1
Overview of reported IC50 across a group of compounds:

Compound	IC50
C=C(C)[C@@H]1CC[C@]2(C(=O)OCc3ccccc3)CC[C@]3(C)C(CCC4[C@@]5(C)C=C(c6cncnc6)C(=O)C(C)(C)C5CC[C@]43C)C12 (some centres unmarked) [Compound 10i]	> 50 µM
CC1(C)C(=O)C(c2ccco2)=C[C@@]2(C)C1CC[C@]1(C)C2CCC2C3[C@H]4OC[C@@]3(CCC4(C)C)CC[C@]21C (some centres unmarked) [Compound 4a]	> 50 µM
C=C(C)[C@@H]1CC[C@]2(C(=O)O)CC[C@]3(C)C(CCC4[C@@]5(C)C=C(c6ccoc6)C(=O)C(C)(C)C5CC[C@]43C)C12 (some centres unmarked) [Compound 11b]	13.5 µM
C=C(C)[C@@H]1CC[C@]2(C(=O)OCc3ccccc3)CC[C@]3(C)C(CCC4[C@@]5(C)C=C(c6cc7ccccc7s6)C(=O)C(C)(C)C5CC[C@]43C)C12 (some centres unmarked) [Compound 10k]	> 50 µM
CC1(C)C(=O)C(c2ccc3c(c2)OCCO3)=C[C@@]2(C)C1CC[C@]1(C)C2CCC2C3[C@H]4OC[C@@]3(CCC4(C)C)CC[C@]21C (some centres unmarked) [Compound 4j]	> 50 µM
CC1(C)C(=O)C(c2ccc(Cl)s2)=C[C@@]2(C)C1CC[C@]1(C)C2CCC2C3[C@H]4OC[C@@]3(CCC4(C)C)CC[C@]21C (some centres unmarked) [Compound 4e]	> 50 µM
C=C(C)[C@@H]1CC[C@]2(C(=O)O)CC[C@]3(C)C(CCC4[C@@]5(C)C=C(c6ccncc6)C(=O)C(C)(C)C5CC[C@]43C)C12 (some centres unmarked) [Compound 11h]	30.6 µM
C=C(C)[C@@H]1CC[C@]2(C(=O)OCc3ccccc3)CC[C@]3(C)C(CCC4[C@@]5(C)C=C(c6ccc7cn[nH]c7c6)C(=O)C(C)(C)C5CC[C@]43C)C12 (some centres unmarked) [Compound 10n]	> 50 µM
C=C(C)[C@@H]1CC[C@]2(C(=O)O)CC[C@]3(C)C(CCC4[C@@]5(C)C=C(c6ccc7c(c6)OCCO7)C(=O)C(C)(C)C5CC[C@]43C)C12 (some centres unmarked) [Compound 11j]	20.9 µM
C=C(C)[C@@H]1CC[C@]2(C(=O)OCc3ccccc3)CC[C@]3(C)C(CCC4[C@@]5(C)C=C(c6ccc7c(c6)OCCO7)C(=O)C(C)(C)C5CC[C@]43C)C12 (some centres unmarked) [Compound 10j]	> 50 µM
C=C(C)[C@@H]1CC[C@]2(C(=O)OCc3ccccc3)CC[C@]3(C)C(CCC4[C@@]5(C)C=C(c6ccco6)C(=O)C(C)(C)C5CC[C@]43C)C12 (some centres unmarked) [Compound 10a]	> 50 µM

###

Tested on: U2OS
Test: MTS cytotoxicity assay, 72 h, U2OS
Format: cell-based
Conditions: Homo sapiens, Table 1
Reported IC50 by item:

Compound	Units Of Measure	Reading Qualifier	IC50
C=C(C)[C@@H]1CC[C@]2(C(=O)O)CC[C@]3(C)C(CCC4[C@@]5(C)C=C(c6ccoc6)C(=O)C(C)(C)C5CC[C@]43C)C12 (stereo partly drawn) [Compound 11b]	µM	=	26
CC1(C)C(=O)C(c2cncnc2)=C[C@@]2(C)C1CC[C@]1(C)C2CCC2C3[C@H]4OC[C@@]3(CCC4(C)C)CC[C@]21C (stereo partly drawn)	µM	>	50
CC1(C)C(=O)C(c2cncc3ccccc23)=C[C@@]2(C)C1CC[C@]1(C)C2CCC2C3[C@H]4OC[C@@]3(CCC4(C)C)CC[C@]21C (stereo partly drawn)	µM	>	50
CC1(C)C(=O)C(c2ccncc2)=C[C@@]2(C)C1CC[C@]1(C)C2CCC2C3[C@H]4OC[C@@]3(CCC4(C)C)CC[C@]21C (stereo partly drawn)	µM	>	50
C=C(C)[C@@H]1CC[C@]2(C(=O)O)CC[C@]3(C)C(CCC4[C@@]5(C)C=C(c6ccc7c(c6)OCCO7)C(=O)C(C)(C)C5CC[C@]43C)C12 (stereo partly drawn) [Compound 11j]	µM	=	22
CC1(C)C(=O)C(c2cccnc2)=C[C@@]2(C)C1CC[C@]1(C)C2CCC2C3[C@H]4OC[C@@]3(CCC4(C)C)CC[C@]21C (stereo partly drawn)	µM	>	50
C=C(C)[C@@H]1CC[C@]2(C(=O)O)CC[C@]3(C)C(CCC4[C@@]5(C)C=C(c6ccco6)C(=O)C(C)(C)C5CC[C@]43C)C12 (stereo partly drawn) [Compound 11a]	µM	=	21
C=C(C)[C@@H]1CC[C@]2(C(=O)O)CC[C@]3(C)C(CCC4[C@@]5(C)C=C(c6cccnc6)C(=O)C(C)(C)C5CC[C@]43C)C12 (stereo partly drawn) [Compound 11g]	µM	=	44
CC1(C)C(=O)C(c2ccc3[nH]ccc3c2)=C[C@@]2(C)C1CC[C@]1(C)C2CCC2C3[C@H]4OC[C@@]3(CCC4(C)C)CC[C@]21C (stereo partly drawn)	µM	>	50
C=C(C)[C@@H]1CC[C@]2(C(=O)O)CC[C@]3(C)[C@H](CC[C@@H]4[C@@]5(C)CC[C@H](O)C(C)(C)[C@@H]5CC[C@]43C)[C@@H]12 [Betulinic acid 5, betulinic acid, reference compound]	µM	=	21
CC1(C)C(=O)C(c2ccc3cn[nH]c3c2)=C[C@@]2(C)C1CC[C@]1(C)C2CCC2C3[C@H]4OC[C@@]3(CCC4(C)C)CC[C@]21C (stereo partly drawn)	µM	=	25
C=C(C)[C@@H]1CC[C@]2(C(=O)O)CC[C@]3(C)C(CCC4[C@@]5(C)C=C(c6cncnc6)C(=O)C(C)(C)C5CC[C@]43C)C12 (stereo partly drawn) [Compound 11i]	µM	>	50

###

Tested on: CCRF-CEM
Assay: MTS cytotoxicity assay, 72 h, CCRF-CEM
Assay type: cell-based
Conditions: CCRF-CEM vs average of BJ and MRC-5; full Table S1
Entries and their SI (selectivity index)
Measured Endpoint: SI (selectivity index)

Compound	Target Of Assay	Recorded Value
C=C(C)[C@@H]1CC[C@]2(C(=O)OCc3ccccc3)CC[C@]3(C)C(CCC4[C@@]5(C)C=C(c6ccco6)C(=O)C(C)(C)C5CC[C@]43C)C12 (stereo partly drawn) [Compound 10a]	CCRF-CEM	> 1.0
CC1(C)C(=O)C(c2ccoc2)=C[C@@]2(C)C1CC[C@]1(C)C2CCC2C3[C@H]4OC[C@@]3(CCC4(C)C)CC[C@]21C (stereo partly drawn)	CCRF-CEM	> 1.0
C=C(C)[C@@H]1CC[C@]2(C(=O)OCc3ccccc3)CC[C@]3(C)C(CCC4[C@@]5(C)C=C(c6ccc7c(c6)OCCO7)C(=O)C(C)(C)C5CC[C@]43C)C12 (stereo partly drawn) [Compound 10j]	CCRF-CEM	> 1.0

###

Test system: HCT 116
Test: MTS cytotoxicity assay, 72 h, HCT 116
Format: cell-based
Settings: Homo sapiens, HCT-116, 72 h, Table 1
Overview of reported IC50 across a group of compounds:

Compound	IC50
CC1(C)C(=O)C(c2cncnc2)=C[C@@]2(C)C1CC[C@]1(C)C2CCC2C3[C@H]4OC[C@@]3(CCC4(C)C)CC[C@]21C (some centres unmarked)	> 50 µM
CC1(C)C(=O)C(c2ccc3[nH]ccc3c2)=C[C@@]2(C)C1CC[C@]1(C)C2CCC2C3[C@H]4OC[C@@]3(CCC4(C)C)CC[C@]21C (some centres unmarked)	> 50 µM
C=C(C)[C@@H]1CC[C@]2(C(=O)O)CC[C@]3(C)C(CCC4[C@@]5(C)C=C(c6cncnc6)C(=O)C(C)(C)C5CC[C@]43C)C12 (some centres unmarked) [Compound 11i]	35 µM
C=C(C)[C@@H]1CC[C@]2(C(=O)O)CC[C@]3(C)C(CCC4[C@@]5(C)C=C(c6ccco6)C(=O)C(C)(C)C5CC[C@]43C)C12 (some centres unmarked) [Compound 11a]	11 µM
C=C(C)[C@@H]1CC[C@]2(C(=O)O)CC[C@]3(C)[C@H](CC[C@@H]4[C@@]5(C)CC[C@H](O)C(C)(C)[C@@H]5CC[C@]43C)[C@@H]12 [Betulinic acid 5, betulinic acid, reference compound]	16 µM
C=C(C)[C@@H]1CC[C@]2(C(=O)O)CC[C@]3(C)C(CCC4[C@@]5(C)C=C(c6ccc7c(c6)OCCO7)C(=O)C(C)(C)C5CC[C@]43C)C12 (some centres unmarked) [Compound 11j]	22 µM
CC1(C)C(=O)C(c2cncc3ccccc23)=C[C@@]2(C)C1CC[C@]1(C)C2CCC2C3[C@H]4OC[C@@]3(CCC4(C)C)CC[C@]21C (some centres unmarked)	> 50 µM
CC1(C)C(=O)C(c2ccncc2)=C[C@@]2(C)C1CC[C@]1(C)C2CCC2C3[C@H]4OC[C@@]3(CCC4(C)C)CC[C@]21C (some centres unmarked)	> 50 µM
CC1(C)C(=O)C(c2ccc3cn[nH]c3c2)=C[C@@]2(C)C1CC[C@]1(C)C2CCC2C3[C@H]4OC[C@@]3(CCC4(C)C)CC[C@]21C (some centres unmarked)	31 µM
C=C(C)[C@@H]1CC[C@]2(C(=O)O)CC[C@]3(C)C(CCC4[C@@]5(C)C=C(c6ccc7cn[nH]c7c6)C(=O)C(C)(C)C5CC[C@]43C)C12 (some centres unmarked) [Compound 11n]	15 µM
C=C(C)[C@@H]1CC[C@]2(C(=O)O)CC[C@]3(C)C(CCC4[C@@]5(C)C=C(c6cccnc6)C(=O)C(C)(C)C5CC[C@]43C)C12 (some centres unmarked) [Compound 11g]	34 µM
